The values you see were collected from ChEMBL document CHEMBL1614632.

- run description: clinical
- condition: human, in vivo, iv, CL
quantity name: clearance (mL/min/kg)
Respond with the bare value in mL/min/kg.

Please review the entries below; each comes with its answer.
compound	test value
COc1nc(N)nc2c1ncn2[C@@H]1O[C@H](CO)[C@@H](O)[C@@H]1O	81
C[C@H](N[C@@H](CCc1ccccc1)C(=O)O)C(=O)N1CCC[C@H]1C(=O)O [ENALAPRILAT ANHYDROUS]	1.6
Cc1cccc(N2CC(CO)OC2=O)c1 (configuration not stated)	11
CCCCc1ncc(/C=C(\Cc2cccs2)C(=O)O)n1Cc1ccc(C(=O)O)cc1	1.9
C/C=C1\NC(=O)[C@H]2CSSCC/C=C/[C@H](CC(=O)N[C@H](C(C)C)C(=O)N2)OC(=O)[C@H](C(C)C)NC1=O	7.4

Req: Quick one: clearance of NNC(=O)c1ccncc1 ?
Resp: 7.4

Req: # get_value(readout='clearance', item= CN[C@@H]1C[C@H]2O[C@@](C)([C@@H]1OC)n1c3ccccc3c3c4c(c5c6ccccc6n2c5c31)C(=O)N[C@@H]4O )
Resp: 0.0037
